assay: Cytotoxicity against human HepG2 cells assessed as reduction in cell viability after 24 hrs by MTT assay; type: cell-based
Listing: log10(CC50 at 24 h) of selected compounds
EXPERIMENTAL ENDPOINT: log10(CC50 at 24 h) (log10 of the value in µM)

{"columns": ["COMPOUND", "EXPERIMENTAL ENDPOINT", "OBSERVED VALUE"],
 "data": [
  ["C#CCOC1=C(CC=C(C)C)C(=O)c2ccccc2C1=O", "log10(CC50 at 24 h)", 2.97],
  ["CC(C)=CCC1=C(OCc2cn(-c3ccc(C#N)cc3)nn2)C(=O)c2ccccc2C1=O", "log10(CC50 at 24 h)", 2.85],
  ["CC(C)=CCC1=C(OCc2cn(Cc3ccccc3)nn2)C(=O)c2ccccc2C1=O", "log10(CC50 at 24 h)", 2.62],
  ["CC(C)=CCC1=C(OCc2cn(-c3ccc([N+](=O)[O-])cc3)nn2)C(=O)c2ccccc2C1=O", "log10(CC50 at 24 h)", 2.73],
  ["COc1cc([N+](=O)[O-])ccc1-n1cc(COC2=C(CC=C(C)C)C(=O)c3ccccc3C2=O)nn1", "log10(CC50 at 24 h)", 2.85],
  ["COc1ccc(-n2cc(COC3=C(CC=C(C)C)C(=O)c4ccccc4C3=O)nn2)c([N+](=O)[O-])c1", "log10(CC50 at 24 h)", 2.73],
  ["CCN(CC)CCCC(C)Nc1ccnc2cc(Cl)ccc12 (stereo unspecified)", "log10(CC50 at 24 h)", 2.59],
  ["CC(C)=CCC1=C(OCc2cn(-c3cccnc3)nn2)C(=O)c2ccccc2C1=O", "log10(CC50 at 24 h)", 3.01],
  ["CC(C)=CCC1=C(OCc2cn(C3C[C@@H](CO)O[C@H]3n3cc(C)c(=O)[nH]c3=O)nn2)C(=O)c2ccccc2C1=O (stereo partly specified)", "log10(CC50 at 24 h)", 1.78],
  ["CC(C)=CCC1=C(OCc2cn(-c3cccc(F)c3)nn2)C(=O)c2ccccc2C1=O", "log10(CC50 at 24 h)", 2.42],
  ["CC(C)=CCC1=C(OCc2cn(-c3ccccc3C)nn2)C(=O)c2ccccc2C1=O", "log10(CC50 at 24 h)", 2.41],
  ["CC(C)=CCC1=C(OCc2cn(-c3ccc(Cl)cc3)nn2)C(=O)c2ccccc2C1=O", "log10(CC50 at 24 h)", 3.06],
  ["CC(C)=CCC1=C(OCc2cn(-c3ccccc3)nn2)C(=O)c2ccccc2C1=O", "log10(CC50 at 24 h)", 2.00],
  ["CC(C)=CCC1=C(OCc2cn(-c3ccc(S(N)(=O)=O)cc3)nn2)C(=O)c2ccccc2C1=O", "log10(CC50 at 24 h)", 2.68],
  ["CC(C)=CCC1=C(OCc2cn(C3CCNCC3)nn2)C(=O)c2ccccc2C1=O", "log10(CC50 at 24 h)", 2.76],
  ["COc1ccc(-n2cc(COC3=C(CC=C(C)C)C(=O)c4ccccc4C3=O)nn2)cc1", "log10(CC50 at 24 h)", 2.30],
  ["CC(C)=CCC1=C(OCc2cn(C3CCN(C(=O)OC(C)(C)C)CC3)nn2)C(=O)c2ccccc2C1=O", "log10(CC50 at 24 h)", 2.13],
  ["CC(C)=CCC1=C(OCc2cn(-c3ccnc4cc(Cl)ccc34)nn2)C(=O)c2ccccc2C1=O", "log10(CC50 at 24 h)", 3.29],
  ["CC(C)=CCC1=C(OCc2cn(Cc3ccccn3)nn2)C(=O)c2ccccc2C1=O", "log10(CC50 at 24 h)", 2.82]
]}
